src = patent US12071411B2

- study.target: HIF-2α (Homo sapiens)
- Sequence (Q99814 whole entry): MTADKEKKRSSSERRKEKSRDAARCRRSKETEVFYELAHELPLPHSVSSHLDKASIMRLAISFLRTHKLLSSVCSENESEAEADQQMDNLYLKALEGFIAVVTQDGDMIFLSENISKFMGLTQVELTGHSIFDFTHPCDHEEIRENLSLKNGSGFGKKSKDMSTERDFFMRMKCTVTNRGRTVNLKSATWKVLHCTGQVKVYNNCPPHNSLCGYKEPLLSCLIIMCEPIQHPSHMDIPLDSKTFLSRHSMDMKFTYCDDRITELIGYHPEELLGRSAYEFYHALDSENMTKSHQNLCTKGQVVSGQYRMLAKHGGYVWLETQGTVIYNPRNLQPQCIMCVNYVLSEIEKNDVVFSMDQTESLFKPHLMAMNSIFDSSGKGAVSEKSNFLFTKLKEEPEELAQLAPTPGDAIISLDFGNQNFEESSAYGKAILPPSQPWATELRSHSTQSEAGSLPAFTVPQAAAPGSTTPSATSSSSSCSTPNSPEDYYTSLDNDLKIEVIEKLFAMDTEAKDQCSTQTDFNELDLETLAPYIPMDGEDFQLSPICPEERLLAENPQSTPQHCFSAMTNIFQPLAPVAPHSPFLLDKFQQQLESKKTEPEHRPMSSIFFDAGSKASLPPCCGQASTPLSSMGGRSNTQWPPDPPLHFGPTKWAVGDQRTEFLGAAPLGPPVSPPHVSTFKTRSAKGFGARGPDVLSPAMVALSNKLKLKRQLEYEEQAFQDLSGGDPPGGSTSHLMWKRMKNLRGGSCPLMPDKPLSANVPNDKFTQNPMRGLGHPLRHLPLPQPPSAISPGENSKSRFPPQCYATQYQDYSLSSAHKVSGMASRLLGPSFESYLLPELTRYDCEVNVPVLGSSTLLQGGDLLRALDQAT
- assay.info: HIF-2α Luciferase Reporter Assay (serum), HRE-luciferase 786-0 cells in 100% human serum
- Assay type: cell-based
- assay.setup: 100% human serum, 786-0 reporter cells, overnight incubation; read-out: Serum Potency
pIC50: −log10 of the molar value.
We begin with a simple list: items and their reported pIC50.

Use these answered entries as a reference point.
O[C@H]1c2c(C(F)(F)F)nn([C@H]3C[C@@H](F)[C@@H](F)[C@@H](F)C3)c2[C@@H](F)[C@H]1F = < 6.00
O[C@H]1c2c(C(F)(F)F)nn([C@@H]3C[C@@H]4[C@H](C3)C4(F)F)c2CC1(F)F (single isomer, unassigned) [125/126 DIAST-2] = < 6.00
O[C@H]1c2c(C(F)(F)F)nn(C3CC4(C3)CC(F)(F)C4)c2[C@H](F)[C@H]1F (single isomer, unassigned) = < 6.00

Qu. Consider the molecule shown here: O=S1(=O)CC(Cn2nc(C(F)(F)F)c3c2CC(F)(F)[C@H]3O)C1 What is its recorded pIC50?
Ans. 6.00 to 7.00

Qu. Consider the molecule shown here: CCCCn1nc(C(F)(F)F)c2c1CCC(F)(F)[C@H]2O What is its recorded pIC50?
Ans. < 6.00

Qu. Consider the molecule shown here: [O-][S+](CCn1nc(C(F)(F)F)c2c1CCC(F)(F)[C@H]2O)C(F)F (stereo partly shown) What is its recorded pIC50?
Ans. < 6.00

Qu. Consider the molecule shown here: O[C@H]1c2c(C(F)(F)F)nn([C@@H]3CC[C@@H](F)[C@@H](F)C3)c2[C@H](F)C1(F)F What is its recorded pIC50?
Ans. < 6.00

Qu. Consider the molecule shown here: O=S1(=O)CC2(CC(n3nc(C(F)(F)F)c4c3CC(F)(F)[C@H]4O)C2)C1 What is its recorded pIC50?
Ans. < 6.00

Qu. Consider the molecule shown here: CC(CCn1nc(C(F)(F)F)c2c1CCC(F)(F)[C@H]2O)OC(F)(F)F (stereo partly shown) What is its recorded pIC50?
Ans. > 7.00

Qu. Consider the molecule shown here: O[C@H]1c2c(C(F)(F)F)nn([C@@H]3CCC[C@@H](C(F)(F)F)C3)c2CC1(F)F What is its recorded pIC50?
Ans. < 6.00

Qu. Consider the molecule shown here: O[C@H]1c2c(C(F)(F)F)nn([C@@H]3COCC(F)(F)C3)c2CC1(F)F What is its recorded pIC50?
Ans. < 6.00

Qu. Consider the molecule shown here: O[C@H]1c2c(C(F)(F)F)nn([C@@H]3C[C@@H](F)[C@@H](F)[C@@H](F)C3)c2[C@@H](F)[C@H]1F What is its recorded pIC50?
Ans. 6.00 to 7.00

Qu. Consider the molecule shown here: O[C@H]1c2c(C(F)(F)F)nn(CCCOC(F)(F)F)c2[C@@H](F)CC1(F)F (single isomer, unassigned) [129/130 DIAST-1] What is its recorded pIC50?
Ans. < 6.00

Qu. Consider the molecule shown here: CC(F)(F)CCn1nc(C(F)(F)F)c2c1CCC(F)(F)[C@H]2O What is its recorded pIC50?
Ans. 6.00 to 7.00

Qu. Consider the molecule shown here: CS(=O)(=O)CCn1nc(C(F)(F)F)c2c1CC(F)(F)[C@H]2O What is its recorded pIC50?
Ans. 6.00 to 7.00

Qu. Consider the molecule shown here: O[C@H]1c2c(C(F)(F)F)nn([C@H]3C[C@H](COC(F)F)C3)c2CC1(F)F What is its recorded pIC50?
Ans. < 6.00
